assay type: physicochemical; conditions: method [a]: HPLC/LC-MS on reversed phase at pH 2.7, 0.1% formic acid in water / acetonitrile, gradient 10% to 95% acetonitrile
Experimental endpoint: log P

Worked examples follow.
INSERT INTO assay_data (compound, test_result) VALUES
  ('C#Cc1cnc2ccc(C3=NOC(C)(C(=S)NCc4cnn(C)c4)C3)cc2c1 (racemic) [compound 451]', '2.62[a]'),
  ('CCC1(C(=O)NCC2COC(C)(C)O2)CC(c2ccc3ncc(Br)cc3c2)=NO1 (stereo not shown) [compound 499]', '2.99[a]'),
  ('C#Cc1cnc2ccc(C3=NOC(C)(C(=O)NC(C)COCC)C3)cc2c1 (stereo not shown) [compound 506]', '2.55[a]'),
  ('C#Cc1cnc2ccc(C3=NOC(CC)(C(=S)NCc4cn(CC)nc4C)C3)cc2c1 (stereo not shown) [compound 507]', '3.31[a]'),
  ('CCOC1(C(=O)NCc2cn(CC)nc2C)CC(c2ccc3ncc(Br)cc3c2)=NO1 (stereo not shown) [compound 416]', '1.95[a]');

Query: Which value of log P has been reported for COC1(C(=O)NC2CC2)CC(c2ccc3ncc(Br)cc3c2)=NO1 (stereo not shown) [compound 508] in the records?
Response: 2.35[a]

Query: Which value of log P has been reported for CCOc1cnc2ccc(C3=NOC(C)(C(=O)NCc4cn(CC)nc4C)C3)cc2c1 (stereo not shown) [compound 417] in the records?
Response: 2.09[a]

---

tested on: Septoria tritici; experiment: In vivo preventive test on Septoria tritici (leaf spot on wheat); conditions: 500 ppm; wheat plants sprayed 24 hours before contamination; grading 21 to 28 days after contamination vs control plants
# maps each entry to its % of efficacy (protection)
State the answer as a number, implicitly in %.

Worked examples follow.
INSERT INTO results (molecule, experimental_endpoint, test_result) VALUES
  ('CC1(C(=O)NC2CC2C2CC2)CC(c2ccc3ncc(Br)cc3c2)=NO1 (stereo not drawn) [compound 215]', '% of efficacy (protection)', 86),
  ('CC1(C)OCC(CNC(=O)C2(C(F)F)CC(c3ccc4ncc(I)cc4c3)=NO2)O1 (stereo not drawn) [compound 618]', '% of efficacy (protection)', 93),
  ('C=Cc1cnc2ccc(C3=NOC(C)(C(=O)NC(C)C)C3)cc2c1 (stereo not drawn) [compound 304]', '% of efficacy (protection)', 100);

Query: Which value of % of efficacy (protection) has been reported for C#Cc1cnc2ccc(C3=NOC(C)(C(=O)NCc4cnc(C)cn4)C3)cc2c1 (stereo not drawn) [compound 167] in the records?
Response: 100

Query: Which value of % of efficacy (protection) has been reported for CC(NC(=O)C1(C)CC(c2ccc3ncc(Br)cc3c2)=NO1)c1nccs1 (stereo not drawn) [compound 310] in the records?
Response: 100

Query: Which value of % of efficacy (protection) has been reported for C#Cc1cnc2ccc(C3=NOC(C)(C(=O)NCc4ccc5ccoc5c4)C3)cc2c1 (stereo not drawn) [compound 242] in the records?
Response: 86

Query: Which value of % of efficacy (protection) has been reported for CCNC(=O)C1(C)CC(c2ccc3ncc(Br)cc3c2)=NO1 (stereo not drawn) [compound 528] in the records?
Response: 97

Query: Which value of % of efficacy (protection) has been reported for C#CCCNC(=O)C1(C)CC(c2ccc3ncc(Br)cc3c2)=NO1 (stereo not drawn) [compound 353] in the records?
Response: 94

---

assay type: physicochemical; conditions: HPLC on reversed phase columns, method [a]: pH 2.7, 0.1% formic acid in water / acetonitrile, linear gradient 10% to 95% acetonitrile
Experimental endpoint: log P

INSERT INTO results (molecule, experimental_endpoint, test_result) VALUES
  ('CCn1cc(CNC(=O)C2(C)CC(c3cc(C)c4ncc(Br)cc4c3)=NO2)c(C)n1 (stereo not shown) [compound 580]', 'log P', '2.96[a]');

Query: Which value of log P has been reported for C#Cc1cnc2ccc(C3=NOC(C)(C(=O)NC(CC)COC)C3)cc2c1 (stereo not shown) [compound 524] in the records?
Response: 2.58[a]

Query: Which value of log P has been reported for CCC1C(c2ccc3ncc(Br)cc3c2)=NOC1(C)C(=O)NC(C)C (stereo not shown) [compound 283] in the records?
Response: 3.76[a]

Query: Which value of log P has been reported for CC(O)C1(C(=O)NC2CCC2)CC(c2ccc3ncc(Br)cc3c2)=NO1 (stereo not shown) [compound 563] in the records?
Response: 2.41[a]

---

# maps each entry to its % of efficacy (protection)
tested on: Botrytis cinerea; test: In vivo preventive test on Botrytis cinerea (grey mould); details: 500 ppm; gherkin plants sprayed 24 hours before contamination; grading 4-5 days after contamination vs control plants
State the answer as a number, implicitly in %.

INSERT INTO assay_data (molecule, experimental_endpoint, measure_unit, test_result) VALUES
  ('CCCn1cc(CNC(=O)C2(C)CC(c3cc(Cl)c4ncc(Br)cc4c3)=NO2)c(C)n1 (racemic)', '% of efficacy (protection)', '%', 83),
  ('CCC1(C(=O)NC2CCC2)CC(c2ccc3ncc(Br)cc3c2)=NO1 (stereo not drawn)', '% of efficacy (protection)', '%', 92);

We next turn to a different molecule, shown below.
Query: Which value of % of efficacy (protection) has been reported for CCOCCCNC(=O)C1(C)CC(c2cc(C)c3ncc(Br)cc3c2)=NO1 (racemic) in the records?
Response: 100

---

# maps each entry to its log P
format: physicochemical; conditions: HPLC on reversed phase columns, method [a]: pH 2.7, 0.1% formic acid in water / acetonitrile, linear gradient 10% to 95% acetonitrile

Query: Which value of log P has been reported for Cc1nc(C)c(C(C)NC(=O)C2(C)CC(c3ccc4ncc(Br)cc4c3)=NO2)s1 (stereo not shown) in the records?
Response: 2.46[a]

Query: Which value of log P has been reported for C#Cc1cnc2ccc(C3=NOC(C)(C(=O)NC(C#N)c4ccccc4)C3)cc2c1 (stereo not shown) in the records?
Response: 2.88[a]

Query: Which value of log P has been reported for CCn1cc(CNC(=O)C2(C)CC(c3ccc4nc(OC)c(Br)cc4c3)=NO2)c(C)n1 (stereo not shown) in the records?
Response: 2.96^[a]

---

format: physicochemical; conditions: HPLC on reversed phase columns, method [a]: pH 2.7, 0.1% formic acid in water / acetonitrile, linear gradient 10% to 95% acetonitrile
Experimental endpoint: log P

Worked examples follow.
INSERT INTO results (compound, test_result) VALUES
  ('CC(NC(=O)C1(C)CC(c2ccc3ncc(Br)cc3c2)=NO1)c1cccc2ccccc12 (stereo not shown)', '4.09[a]'),
  ('C#Cc1cnc2ccc(C3=NOC(C)(C(=O)NC(C)c4ccccc4Cl)C3)cc2c1 (stereo not shown)', '3.42[a]'),
  ('CC(NC(=O)C1(C)CC(c2ccc3ncc(Br)cc3c2)=NO1)C1=NOCC1 (stereo not shown)', '2.34[a]');

We next turn to a different compound, shown below.
Query: Which value of log P has been reported for COC(CNC(=O)C1(C)CC(c2ccc3ncc(Br)cc3c2)=NO1)OC (stereo not shown) in the records?
Response: 2.39[a]

---

conditions: Table 2, formula (II); method [a]: pH 2.7, 0.1% formic acid in water / acetonitrile gradient
# maps each entry to its Log P

Worked examples follow.
INSERT INTO assay_data (molecule, test_result) VALUES
  ('COc1nc2ccc(C3=NOC(C)(C(=O)O)C3)cc2cc1Br (stereo not drawn) [II-38]', '2.64[a]'),
  ('COC(=O)C1(C)CC(c2cc3cccnc3c(F)c2F)=NO1 (stereo not drawn) [II-29]', '2.11[a]'),
  ('COC(=O)C1(C)CC(c2ccc3ncc(Br)c(Cl)c3c2)=NO1 (stereo not drawn) [II-95]', '3.29[a]'),
  ('COC(=O)C1(C)CC(c2cc(Cl)c3ncc(Br)cc3c2)=NO1 (stereo not drawn) [II-76]', '3.29[a]');

Query: Which value of Log P has been reported for CCOC(=O)C1(C[Si](C)(C)C)CC(c2ccc3ncc(Br)cc3c2)=NO1 (stereo not drawn) [II-58] in the records?
Response: 3.80[a]

Query: Which value of Log P has been reported for COC(=O)C1(OC)CC(c2cc3cc(Br)cnc3c(F)c2F)=NO1 (racemic) [II-24] in the records?
Response: 3.04[a]

Query: Which value of Log P has been reported for C#Cc1cnc2c(Cl)cc(C3=NOC(C)(C(=O)OC)C3)cc2c1 (stereo not drawn) [II-75] in the records?
Response: 2.92[a]

Query: Which value of Log P has been reported for CCOC(=O)C1(C)CC(c2ccc3ncccc3c2)=NO1 (racemic) [II-20] in the records?
Response: 1.6[a]

Query: Which value of Log P has been reported for COC(=O)C1(C)CC(c2ccc3ncc(Br)cc3c2)=NO1 (stereo not drawn) [II-33] in the records?
Response: 2.69[a]

Query: Which value of Log P has been reported for Cc1cc(C2=NOC(C)(C(=O)O)C2)cc2cc(Br)cnc12 (stereo not drawn) [II-85] in the records?
Response: 2.64[a]

Query: Which value of Log P has been reported for COC(=O)C1(CCl)CC(c2ccc3ncc(Br)cc3c2)=NO1 (racemic) [II-16] in the records?
Response: 3.03[a]

Query: Which value of Log P has been reported for CC1(C(=O)O)CC(c2cc3cc(Br)cnc3cc2F)=NO1 (racemic) [II-07] in the records?
Response: 2.14[a]
